- Subject Of Test: α-glucosidase
- Method: α-glucosidase inhibitory activity assay (pNPG hydrolysis)
- Conditions Used: 50% inhibitory concentration; triplicate; read-out: α-Glucosidase Inhibitory Activity (IC50 ± SD)
Observable: pIC50
Keep it numeric: pIC50 is minus log10 of the concentration in mol/L.

Provide the reported pIC50 (system: α-glucosidase) for O=C1NCc2c1ccc(O)c2O [Compound 2, 4,5-dihydroxyisoindolin-1-one]
3.70

Provide the reported pIC50 (system: α-glucosidase) for O=C1C[C@@H](O)c2c1ccc(O)c2O
3.43

Provide the reported pIC50 (system: α-glucosidase) for O=C1CCc2c1ccc(O)c2O [Compound 1, 4,5-dihydroxyindan-1-one]
3.73

====

- System: NALM6, B cell acute lymphocytic leukemia
- Method: Cytotoxicity assay, NALM6 blood cancer cell line
- Format: cell-based
- Conditions Used: 50% growth inhibitory concentration, triplicate, read-out: Cytotoxic Activity (GI50 ± SD, μM) NALM6
Observable: GI50 (µM)
The reply should contain only the number, in µM.

Compound: O=C1NCc2c1ccc(O)c2O [Compound 2, 4,5-dihydroxyisoindolin-1-one]
Unit Annotation: µM
Recorded Value: 29.6

Okay, next one:
Please give measured GI50 of the following entry: O=C1CCc2c1ccc(O)c2O [Compound 1, 4,5-dihydroxyindan-1-one]
9.47
